Overview of reported % UTC (Yap1 mRNA) across a group of substances:
- Tested on: Yap1 mRNA
- experimentNotes: Dose-dependent inhibition of human Yap1 in SNU-449 cells (Example 9, RTS36584)
- Format: cell-based
- conditionSet: 125.0 nM, free uptake, approximately 48 hours
Strand notation (5' to 3'): a small letter for the sugar, then the base; units joined by * are phosphorothioate-linked, units joined directly phosphodiester-linked; [ ] holds rarer units or linkages, { } end groups; capitals alone tell only the bases. e = 2'-O-(2-methoxyethyl) (MOE); k = constrained ethyl (cEt); [5mC] = 5-methylcytosine; d = 2'-deoxy (DNA); m = 2'-O-methyl
Returns: string containing the number followed by the unit.

Some substances with known % UTC (Yap1 mRNA) results, for comparison:
substance: 1198527 (kA*kA*dA*dG*dT*dG*dT*dA*dT*dG*dT*e[5mC]*kA*eG*kA*eA; antisense) [compound 1198527]
% UTC (Yap1 mRNA): 35 % UTC
--
substance: 1198872 (TGTATGTCAGAAGAGT; chemically modified gapmer, further chemistry not given here) [compound 1198872]
% UTC (Yap1 mRNA): 21 % UTC
--
substance: 1197229 (kG*kG*kA*dA*mA*dT*dT*dG*dT*d[5mC]*dT*d[5mC]*dA*kT*kG*k[5mC]; antisense) [compound 1197229]
% UTC (Yap1 mRNA): 32 % UTC

Problem: Data request, read-out % UTC (Yap1 mRNA), for 1198502 (kA*kG*dA*dT*dT*dT*dA*dG*dG*dA*dT*eG*k[5mC]*eA*kT*eG; antisense) [compound 1198502]
Result: 50 % UTC

Problem: Quick one: % UTC (Yap1 mRNA) for 958590 (kA*kG*kG*dT*dA*dT*dA*dA*d[5mC]*dT*dG*dG*dG*k[5mC]*kA*kA) [compound 958590] ?
Result: 52 % UTC

Problem: Look at this substance and give its reported % UTC (Yap1 mRNA). 1198935 (kG*kA*dT*dT*dT*dA*dG*dG*dA*dT*dG*k[5mC]*dA*kT*dG*kG; antisense) [compound 1198935]
Result: 46 % UTC

Problem: For the substance 1197235 (kA*kT*kT*dA*mG*dA*dG*dT*dA*dT*dG*dT*dG*kG*k[5mC]*kA; antisense) [compound 1197235] , what % UTC (Yap1 mRNA) is on record?
Result: 36 % UTC

Problem: Reported % UTC (Yap1 mRNA) for 1198546 (kG*kA*kA*dA*dT*dT*dG*dT*d[5mC]*dT*d[5mC]*dA*kT*kG*k[5mC]*e[5mC]) [compound 1198546] : what is it?
Result: 42 % UTC

Problem: Data request, read-out % UTC (Yap1 mRNA), for 1198874 (kA*kA*dG*dT*dG*dT*dA*dT*dG*dT*d[5mC]*kA*eG*kA*eA*kG) [compound 1198874]
Result: 8 % UTC

Problem: What does the record list as % UTC (Yap1 mRNA) for 1198799 (k[5mC]*eT*kA*dA*dG*dT*dA*dA*dG*dG*dT*dT*eT*e[5mC]*k[5mC]*k[5mC]; antisense) [compound 1198799] ?
Result: 35 % UTC

Problem: Given 1198857 (kT*k[5mC]*dT*dT*dA*dT*dA*dT*dG*dG*dT*kT*eT*kT*eG*kT) [compound 1198857] , state its recorded % UTC (Yap1 mRNA).
Result: 44 % UTC

Problem: // % UTC (Yap1 mRNA) lookup, key: 1200788 (kG*kA*kA*dA*dT*mU*dG*dT*d[5mC]*dT*d[5mC]*dA*dT*kG*k[5mC]*k[5mC]) [compound 1200788]
Result: 38 % UTC

Problem: Please report the recorded % UTC (Yap1 mRNA) for 1198243 (kG*kA*dT*dT*dT*dA*dG*dG*dA*dT*dG*e[5mC]*eA*eT*kG*kG; antisense) [compound 1198243] .
Result: 28 % UTC

Measured values drawn from patent US11214803B2 for this set.
